Biological target: recombinant human KLK5 (Homo sapiens)
Construct: purchased R & D Systems Inc
Sequence (Q9Y337 23-293): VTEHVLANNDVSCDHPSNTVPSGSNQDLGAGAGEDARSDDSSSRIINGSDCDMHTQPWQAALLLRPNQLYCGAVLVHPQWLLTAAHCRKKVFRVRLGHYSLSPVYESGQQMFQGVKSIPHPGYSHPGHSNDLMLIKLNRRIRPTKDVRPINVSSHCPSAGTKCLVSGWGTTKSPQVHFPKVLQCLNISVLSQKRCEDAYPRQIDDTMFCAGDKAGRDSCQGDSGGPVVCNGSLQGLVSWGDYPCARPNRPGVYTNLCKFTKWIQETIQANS
Test: KLK5 enzymatic assay (Boc-V-P-R-AMC fluorogenic substrate)
Assay type: biochemical
Conditions: 10 μM test compound; KLK5 8.1 nM; substrate 100 μM; mean ± SEM of triplicate; read-out: Anti-KLK5 Activity % Inhibition
So I've got a bunch of compounds here, and I need their inhibition at 10 µM values.
Lab book: enter the figure in %, no units written.

# get_value(readout='inhibition at 10 µM', item= C[C@@H]1O[C@@H](O[C@H]2[C@H](OC(=O)[C@]34CCC(C)(C)C[C@H]3C3=CC[C@@H]5[C@@]6(C)C[C@H](O)[C@H](O[C@@H]7O[C@H](CO)[C@@H](O)[C@H](O)[C@H]7O)C(CO)(CO)[C@@H]6CC[C@@]5(C)[C@]3(C)C[C@H]4O)OC[C@H](O)[C@@H]2O)[C@H](O)[C@H](O)[C@H]1O[C@@H]1OC[C@@H](O)[C@H](O[C@@H]2OC[C@](O)(CO)[C@H]2O)[C@H]1O [Platycodin D] )
-6

# get_value(readout='inhibition at 10 µM', item= C=C(CC[C@@H](C(=O)O)[C@H]1CC[C@@]2(C)C3=C(CC[C@]12C)[C@@]1(C)CC[C@H](O)C(C)(C)[C@@H]1CC3)C(C)C [Eburicoic acid] )
-51
